Assay Overview: Redox activity of compound assessed as quenching of luminescence by horseradish peroxidase coupled luminol assay
Assay type: physicochemical
Observed Property: pEC50
Lab note — pEC50 values are minus log10 of concentrations in M.

In [3]: df
Out[3]:
                     input_smiles  quantitative_readout
0  CCCCCCCC(=O)NCCc1cc(O)c(O)cc1F                  4.49

With those in mind, consider the next compound.
q: Dear colleague, I am looking for the recorded pEC50 of the following compound: `CCCCCCCC(=O)NCCc1ccc(O)c(O)c1`
a: 4.92

----------
Assay Overview: Metabolic stability of compound in rat plasma assessed as compound recovery rate measured after 120 mins by radio-HPLC analysis
Format: ADME, cell-free
Condition Label: read-out: Drug recovery
Observed Property: remaining at 2 h (%)
Write the answer as a number in %, unit excluded.

q: Dear colleague, I am looking for the recorded remaining at 2 h of the following molecule: `CCCCCCCC(=O)NCCc1cc(O)c(O)cc1[18F]`
a: 77
